molecular target: huCDH19(44-772) with Flag tag (construct A, Hu EC1-5) (human, UniProt Q9H159 44-772); assay: flow cytometry, transfected 293T cells
test.readout: binding result

[
  {
    "binder": "hu anti-<huCDH19> 4A2 (1-472)(Q17E,H47P) VH::huIgG1z + 4A2 (1-236)(N30Q,T102A) VL::huKLC (Ab ID 14026) (antibody, V domains shown, Engineered variant of 4A2; the entries already carry the changes; Bin 4) VH: QVQLQESGPGLVKPSETLSLTCTVSGGSISSSGYYWSWIRQPPGKGLEWIGYIYYTGSAYYNPSLKSRVTISVDTSKNQFSLKLSSVTAADTAVYYCARDGSSGWYFQYWGQGTLVTVSS VL: EIVLTQSPGTLSLSPGERATLSCRASRQISSSYLAWYQQKPGQAPRLLIYGPSSRATGIPDRFSGSGSGTDFTLTISRLEPEDFAVYYCQQYGSSFTFGPGTKVDIKR",
    "test.readout": "binding result",
    "endpoint.result": "binds"
  }
]
